- experimentalSystem: Mesothelin (SwissProt reference Q13421-3) (Homo sapiens, UniProt Q13421 37-622)
- assayNotes: cell-based or functional assay
Property: IC50 (nM), HT29 meso+ cells, MTT proliferation assay; scope: individual binders
reportedProperty: IC50 (nM), HT29 meso+ cells, MTT proliferation assay

binder	resultUnits	numericValue
Example 109, conjugate of anti-mesothelin antibody MF-Ta (antibody, human IgG1, lambda, V domains shown, toxophore-linker on Cys sulfur, sites not given) VH: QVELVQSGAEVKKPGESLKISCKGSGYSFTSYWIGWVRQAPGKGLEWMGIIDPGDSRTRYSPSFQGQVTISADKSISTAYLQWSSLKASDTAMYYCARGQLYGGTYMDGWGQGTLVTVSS VL: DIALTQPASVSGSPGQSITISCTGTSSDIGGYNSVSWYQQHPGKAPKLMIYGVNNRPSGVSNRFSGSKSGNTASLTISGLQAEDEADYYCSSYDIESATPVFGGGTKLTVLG	nM	0.09
Example 136, conjugate of anti-mesothelin antibody MF-Ta (antibody, human IgG1, lambda, V domains shown, toxophore-linker on Lys NH, sites not given) VH: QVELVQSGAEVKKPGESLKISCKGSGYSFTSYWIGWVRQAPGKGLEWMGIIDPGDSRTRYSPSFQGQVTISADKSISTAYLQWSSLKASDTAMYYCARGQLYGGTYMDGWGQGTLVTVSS VL: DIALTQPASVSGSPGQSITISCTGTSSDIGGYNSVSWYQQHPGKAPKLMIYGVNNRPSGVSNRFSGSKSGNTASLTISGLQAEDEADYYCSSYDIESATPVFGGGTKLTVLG	nM	1.6
Example 159, conjugate of anti-mesothelin antibody MF-Ta (antibody, human IgG1, lambda, V domains shown, toxophore-linker, coupling residue not stated) VH: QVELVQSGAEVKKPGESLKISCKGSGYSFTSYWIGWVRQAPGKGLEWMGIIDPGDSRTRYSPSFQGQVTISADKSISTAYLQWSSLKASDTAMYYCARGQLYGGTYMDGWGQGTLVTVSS VL: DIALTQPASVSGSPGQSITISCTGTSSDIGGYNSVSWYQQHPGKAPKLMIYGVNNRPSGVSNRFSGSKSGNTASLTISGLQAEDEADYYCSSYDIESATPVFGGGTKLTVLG	nM	177
